# assayTarget: hCOX-2 (Homo sapiens, UniProt P35354)
# Sequence (P35354 18-604): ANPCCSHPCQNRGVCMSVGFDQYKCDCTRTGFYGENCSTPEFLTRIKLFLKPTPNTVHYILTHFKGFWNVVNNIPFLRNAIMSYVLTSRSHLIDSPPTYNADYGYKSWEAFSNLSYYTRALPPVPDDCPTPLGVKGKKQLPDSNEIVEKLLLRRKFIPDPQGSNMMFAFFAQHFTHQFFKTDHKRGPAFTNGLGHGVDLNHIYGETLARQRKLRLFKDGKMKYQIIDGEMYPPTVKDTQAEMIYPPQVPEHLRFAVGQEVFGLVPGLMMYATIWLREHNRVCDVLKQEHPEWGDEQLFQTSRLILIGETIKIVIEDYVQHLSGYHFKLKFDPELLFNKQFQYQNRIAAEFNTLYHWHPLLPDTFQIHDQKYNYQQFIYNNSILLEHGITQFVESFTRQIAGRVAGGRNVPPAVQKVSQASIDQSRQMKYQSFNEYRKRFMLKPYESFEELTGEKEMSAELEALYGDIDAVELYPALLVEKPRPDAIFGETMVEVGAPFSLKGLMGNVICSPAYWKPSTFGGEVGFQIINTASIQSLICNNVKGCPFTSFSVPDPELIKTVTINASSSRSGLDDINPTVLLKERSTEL
# methodNotes: Time-dependent COX inhibition assay
resultType: pKi
One number for each entry, as −log10 of the molar value.

Answer with reported pKi of `COc1ccc2c(c1)c(CC(=O)O)c(C(F)(F)F)n2C(=O)c1ccc(Cl)cc1` 5.82

====

Protein target, amino acids: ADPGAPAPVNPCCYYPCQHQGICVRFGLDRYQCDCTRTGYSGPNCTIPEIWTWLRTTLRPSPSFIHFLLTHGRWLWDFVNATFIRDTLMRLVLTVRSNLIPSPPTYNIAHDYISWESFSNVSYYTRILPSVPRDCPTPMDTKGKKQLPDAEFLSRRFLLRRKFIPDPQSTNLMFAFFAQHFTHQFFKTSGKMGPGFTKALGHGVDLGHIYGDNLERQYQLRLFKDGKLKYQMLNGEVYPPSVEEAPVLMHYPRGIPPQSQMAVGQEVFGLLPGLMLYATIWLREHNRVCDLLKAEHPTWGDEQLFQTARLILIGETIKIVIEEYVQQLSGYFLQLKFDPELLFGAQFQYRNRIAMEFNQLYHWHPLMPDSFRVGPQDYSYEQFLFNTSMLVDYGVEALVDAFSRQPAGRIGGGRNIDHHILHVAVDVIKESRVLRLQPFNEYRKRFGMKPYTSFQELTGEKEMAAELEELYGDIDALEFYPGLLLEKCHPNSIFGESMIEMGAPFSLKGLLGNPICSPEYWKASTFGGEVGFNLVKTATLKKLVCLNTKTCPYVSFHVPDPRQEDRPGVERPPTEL
resultType: IC50

Note IC50 for the compound shown: `COc1ccc2c(c1)c(CC(=O)O)c(C(F)(F)F)n2C(=O)c1ccc(Cl)cc1` > 100 µM
